# Target Under Test: human H4 receptor (Homo sapiens, UniProt Q9H3N8);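 further: membranes from SH-SY5Y cells with stable human H4 receptor expression, incubated with GDP 10 µM, radioactivity retained on filters counted by liquid scintillation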
# Sequence (Q9H3N8 whole entry): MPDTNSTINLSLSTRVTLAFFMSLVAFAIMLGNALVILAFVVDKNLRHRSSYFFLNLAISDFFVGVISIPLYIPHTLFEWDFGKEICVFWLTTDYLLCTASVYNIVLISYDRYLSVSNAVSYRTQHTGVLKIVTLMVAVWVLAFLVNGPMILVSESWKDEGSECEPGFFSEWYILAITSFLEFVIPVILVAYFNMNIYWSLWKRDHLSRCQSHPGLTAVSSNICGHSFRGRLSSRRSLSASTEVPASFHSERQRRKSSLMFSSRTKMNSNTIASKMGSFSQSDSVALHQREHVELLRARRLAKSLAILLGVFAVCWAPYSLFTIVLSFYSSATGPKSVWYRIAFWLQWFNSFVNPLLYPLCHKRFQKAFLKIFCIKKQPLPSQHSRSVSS
# Test Details: biochemical
Where a name gives a salt, the structure may show the parent alone.
Consider the following molecules and their measured IC50 readings.

Observe how each entry below is paired with its result.
Enquiry: Which IC50 is reported for this molecule? CN1CCC(OC2c3ccccc3CCn3cc(C4=CCCCC4)nc32)CC1 (stereo not drawn) [Example 62, oxalate]
Return: < 300 nM

Enquiry: // query IC50 value for entry Cc1c(-c2ccc(SC(C)(C)CCO)cc2)nc2n1CCc1ccccc1C2OC1CCN(C)CC1 (stereo not drawn) [Example 152]
Return: < 30 nM

From here, focus on the item given below.
Enquiry: Can you share its IC50? I mean this molecule: CCSc1ccc(-c2cn3c(n2)C(OC2CCN(C)CC2)c2ccccc2CC3)cc1 (stereo not drawn) [Example 46, oxalate]
Return: < 30 nM
